System: ACHN renal
PROTOCOL: NCI tumour cell line growth inhibition, 48 h
The compounds listed here are annotated with their TGI.
Respond numerically; units are µM and should not be typed.

Solved cases below.
- MOLECULE: "OCC#Cc1ccccc1C#CCCCCCCC#Cc1ccccc1C#CCO"
  VALUE_REPORTED: 31.5
- MOLECULE: "COc1ccc2nc3cccc([N+](=O)[O-])c3c(NCCN(C)C)c2c1"
  VALUE_REPORTED: 0.357
- MOLECULE: "O=C(CCN1CCCCC1)Nc1ccc2sc3ccccc3c(=O)c2n1"
  VALUE_REPORTED: 52.7

Switching to the query record.
Answer with reported TGI of O=C(Nc1ccc(Cl)cc1)Nc1ccc(Oc2nncc3ccccc23)cc1 2.33

Hey, just so you know, these numbers are from PubChem BioAssay (NCI).
